Cited source: patent US20210079109A1

# tgt: T1, recombinant human CD63 extracellular loop 2 expressed with a C-terminal human Fc tag (human)
# T1 construct: also called hCD63 EC loop 2-hFc; human CD63 EC loop 2-Fc
# test: SPR Biacore, mAb captured, 25C
Quick reference: koff of the listed items.
// return numeric value only (unit: s⁻¹, not printed)

[[record]]
binder = "H2M12454N (antibody, V domains shown, also called H2bM12454N) VH: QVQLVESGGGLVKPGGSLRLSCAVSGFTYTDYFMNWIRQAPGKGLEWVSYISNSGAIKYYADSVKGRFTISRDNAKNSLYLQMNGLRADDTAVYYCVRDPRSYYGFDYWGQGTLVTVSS VL: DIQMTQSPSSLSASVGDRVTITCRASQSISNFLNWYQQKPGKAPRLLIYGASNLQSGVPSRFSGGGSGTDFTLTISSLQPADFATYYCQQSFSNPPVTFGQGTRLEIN"
test_result = 0.00036

[[record]]
binder = "H1M12451N (antibody, V domains shown) VH: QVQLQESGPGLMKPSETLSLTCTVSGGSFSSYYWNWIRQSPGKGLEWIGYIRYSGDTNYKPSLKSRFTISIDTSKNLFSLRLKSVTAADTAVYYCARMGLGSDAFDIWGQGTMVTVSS VL: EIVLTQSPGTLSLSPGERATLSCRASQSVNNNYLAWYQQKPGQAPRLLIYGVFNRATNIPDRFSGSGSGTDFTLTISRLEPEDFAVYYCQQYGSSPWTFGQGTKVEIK"
test_result = "8.4e-05"

[[record]]
binder = "H2M12452N (antibody, V domains shown, also called H2aM12452N) VH: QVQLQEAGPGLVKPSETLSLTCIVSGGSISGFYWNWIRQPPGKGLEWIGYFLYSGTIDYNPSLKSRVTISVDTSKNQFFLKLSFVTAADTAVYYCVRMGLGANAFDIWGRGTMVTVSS VL: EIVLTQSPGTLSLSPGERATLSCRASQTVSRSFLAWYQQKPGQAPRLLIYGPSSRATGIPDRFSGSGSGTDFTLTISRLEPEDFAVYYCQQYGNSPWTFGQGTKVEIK"
test_result = 0.000228


Task: Using the record for H2M12387N (antibody, V domains shown, also called H2aM12387N) VH: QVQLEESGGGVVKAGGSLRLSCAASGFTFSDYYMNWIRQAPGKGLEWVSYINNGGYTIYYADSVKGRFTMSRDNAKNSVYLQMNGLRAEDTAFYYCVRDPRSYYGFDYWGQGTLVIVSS VL: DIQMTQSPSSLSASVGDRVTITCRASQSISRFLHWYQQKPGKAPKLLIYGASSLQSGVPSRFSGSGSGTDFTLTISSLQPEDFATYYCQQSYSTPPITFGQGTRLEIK , state its measured koff.
Output: 0.00011

Task: Using the record for H1M12362N (antibody, V domains shown) VH: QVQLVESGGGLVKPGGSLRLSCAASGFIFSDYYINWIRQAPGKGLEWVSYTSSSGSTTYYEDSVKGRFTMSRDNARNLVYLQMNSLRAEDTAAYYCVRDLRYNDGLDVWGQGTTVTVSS VL: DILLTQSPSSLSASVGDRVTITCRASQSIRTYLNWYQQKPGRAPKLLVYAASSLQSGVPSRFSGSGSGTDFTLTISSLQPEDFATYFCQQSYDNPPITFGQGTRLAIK , state its measured koff.
Output: 0.000399
